Biological target: T1, human VISTA expressed on cells (human, UniProt Q9H7M9 33-295)
T1 sequence: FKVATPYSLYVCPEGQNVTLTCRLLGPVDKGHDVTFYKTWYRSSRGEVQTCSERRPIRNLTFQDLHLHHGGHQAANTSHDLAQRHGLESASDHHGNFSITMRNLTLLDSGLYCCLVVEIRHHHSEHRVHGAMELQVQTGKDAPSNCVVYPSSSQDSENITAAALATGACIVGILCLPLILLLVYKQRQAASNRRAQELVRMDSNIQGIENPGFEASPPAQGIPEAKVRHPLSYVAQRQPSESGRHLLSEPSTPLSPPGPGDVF
Test: cell-based or functional assay
// values below are reported IC50, IFN-γ in the MLR

Binder | IC50, IFN-γ in the MLR
VSTB53 (antibody, human IgG1, kappa, V domains shown) VH: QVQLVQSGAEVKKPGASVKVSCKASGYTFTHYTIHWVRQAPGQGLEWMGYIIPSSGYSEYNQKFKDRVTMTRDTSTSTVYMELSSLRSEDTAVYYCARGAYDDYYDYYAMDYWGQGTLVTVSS VL: DIVMTQSPLSLPVTPGEPASISCRSSQTIVHSNGNTYLEWYLQKPGQSPQLLIYKVSNRFSGVPDRFSGSGSGTDFTLKISRVEAEDVGVYYCFQASHVPWTFGQGTKLEIKR | 0.27 log10 of antibody concentration
VSTB60 (antibody, human IgG1, kappa, V domains shown) VH: QVQLVQSGSELKKPGASVKVSCKASGYTFTNYGMTWVRQAPGQGLEWMGWINTYTGESTYADDFKGRFVFSLDTSVSTAYLQICSLKAEDTAVYYCARDYYGIYVSAYWGQGTLVTVSS VL: DIVMTQTPLSLSVTPGQPASISCRASESVDNYANSFMHWYLQKPGQSPQLLIYRASNLESGVPDRFSGSGSGTDFTLKISRVEAEDVGVYYCQQSHEDPYTFGQGTKLEIKR | 0.4 log10 of antibody concentration
VSTB95 (antibody, human IgG1, kappa, V domains shown) VH: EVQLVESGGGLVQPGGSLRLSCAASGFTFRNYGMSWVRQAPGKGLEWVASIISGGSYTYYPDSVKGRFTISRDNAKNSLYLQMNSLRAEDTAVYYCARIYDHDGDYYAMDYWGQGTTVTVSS VL: DIVMTQSPLSLPVTPGEPASISCRSSQSIVHSNGNTYLEWYLQKPGQSPQLLIYKVSNRFSGVPDRFSGSGSGTDFTLKISRVEAEDVGVYYCFQGSHVPWTFGQGTKLEIKR | 0.22 log10 of antibody concentration
